system: RPMI-8226 leukemia; assay: NCI-60 one-dose screen, 48 h; conditions: 10 µM unless noted
Compounds without any hit were thinned out: in the full panel of roughly 83,000, 20% have a hit. Calls of active or inactive are those of the source. The calls were made as follows: active = growth percent below 10; inactive = the rest.
Classes used: Yes (active), No (inactive)

1. COc1cc2nccc(Oc3ccc(NC(=O)C4(C(=O)Nc5ccc(F)cc5)CC4)cc3)c2cc1OC: No
2. CCn1cc(-c2ccnc3[nH]c(-c4cccc(CN(C)C)c4)cc23)c(-c2ccc(NC(=O)N(C)C)cc2)n1: Yes
3. O=C(COc1ccc(/C=C2\Cc3ccc(Cl)cc3C2=O)cc1)Nc1nccs1: No
4. COc1ccc(Nc2ncccc2NC(=O)c2cn(Cc3cccc(Oc4ccccc4)c3)nn2)cc1: No
5. Cc1ccc(Nc2nccc(N(C)c3ccc4c(C)n(C)nc4c3)n2)cc1S(N)(=O)=O: No
6. Nc1cc(C(F)(F)F)c(-c2cc(N3CCOCC3)nc(N3CCOCC3)n2)cn1: Yes
7. CSc1nc2ncncc2[nH]1: No
8. C#Cc1cccc(Nc2ncnc3cc4c(cc23)OCCOCCOCCO4)c1: No
9. COc1cc(C2CC(c3ccc(Cl)cc3)=NN2c2ccc(Cl)cc2)cc(OC)c1OC (stereo not given): No
10. CN(C)CCOC(=O)Nc1nc2ccc(Sc3ccccc3)cc2[nH]1: No

---

test system: MDA-MB-231 breast; assay: NCI-60 one-dose screen, 48 h; details: 10 µM unless noted
About 83,000 compounds went through this panel and 20% of them were active in at least one assay; those are over-represented in the sample as a whole. Active and inactive are the calls of the source. Rule for the calls: active = growth percent below 10; inactive = the rest.
Classes used: 1.0 for active, 0.0 for inactive

1) CNc1ncc2cc(-c3cc(NC(=O)NCCC(C)(C)C)c(F)cc3C)c(C)nc2n1: 1.0
2) Cc1cc(Nc2nc(N[C@@H](C)c3ncc(F)cn3)ncc2Cl)n[nH]1: 0.0
3) COC(=O)c1ccc2c(C(=Nc3ccc(N(C)C(=O)CN4CCN(C)CC4)cc3)c3ccccc3)c(O)[nH]c2c1: 0.0
4) Cc1cccc(Cl)c1NC(=O)c1cnc(Nc2cc(N3CCOCC3)cc(S(C)(=O)=O)c2)s1: 1.0
5) Cc1cc2c3c(cccc3c1)C(=O)c1ccccc1-2: 0.0
6) C#Cc1cccc(Nc2ncnc3cc(OCCOC)c(OCCOC)cc23)c1: 0.0
7) COc1cc2c(Oc3ccc(NC(=O)C4(C(=O)Nc5ccc(F)cc5)CC4)cc3F)ccnc2cc1OCCCN1CCOCC1: 1.0
8) CCCCCCCCCNCCCCCCCCC: 0.0
9) C[C@@H](Oc1cc(-c2cnn(C3CCNCC3)c2)cnc1N)c1c(Cl)ccc(F)c1Cl: 1.0
10) Cc1cc(Nc2ncnc3ccc(NC4=NC(C)(C)CO4)cc23)ccc1Oc1ccn2ncnc2c1: 1.0
11) Oc1ccc(C(c2ccc(O)cc2)C(Cl)(Cl)Cl)cc1: 0.0
12) Cn1ccnc1C(=O)/C=C/c1ccc(CC(=O)Nc2ccc(S(F)(F)(F)(F)F)cc2)cc1: 1.0
13) O=C(c1ccccc1)C(c1ccccc1)N1CCOCC1 (stereo not drawn): 0.0
14) O=C(Nc1ccc(C2=NCCCN2)cc1)c1ccc(C(=O)Nc2ccc(C3=NCCCN3)cc2)nc1: 0.0
15) CN1CCN(Cc2ccc(NC(=O)c3[nH]ncc3Nc3ncnc4sc5c(c34)CCCC5)cc2)CC1: 1.0
16) Nc1ccc(S(=O)(=O)O)c2cc(S(=O)(=O)O)cc(O)c12: 0.0
17) C=CC(=O)Nc1cccc(Nc2nc(Nc3ccc(N4CCN(C(C)=O)CC4)cc3OC)ncc2C(F)(F)F)c1: 0.0
18) CNC(=O)c1cc(Oc2cccc3nc(Nc4ccc(Oc5ccccc5)cc4)ccc23)ccn1: 0.0
19) CC1CCC(n2cnc3c(Cl)ncnc32)O1 (stereo not drawn): 0.0
20) COc1ccc(C(=O)c2cc(OC)c(OC)c(OC)c2)cc1/C=C/C(=O)c1ccc(F)cc1: 0.0
21) C/C=C/C=N/NC(=S)Nc1ccccc1: 0.0
22) O=C(Cn1cncn1)Nc1ccc(-c2nc3ccccc3s2)cc1: 0.0
23) O=C(Cn1c(=O)ccn(CCCCCCCCOc2ccc(Br)cc2)c1=O)Nc1ccc(Oc2ccc(Cl)cc2)cc1: 0.0
24) COc1ccc(OC)c(NC2=C(SCCc3ccccc3)C(=O)c3ccccc3C2=O)c1: 0.0
25) Cc1ccc(F)c(NC(=O)Nc2ccc(-c3cccc4[nH]nc(N)c34)cc2)c1: 1.0
26) S=C(NCc1ccc2c(c1)OCO2)N1CCN(c2ncnc3c2oc2ccccc23)CC1: 0.0
27) O=C(c1ccc(/C=C/c2n[nH]c3ccccc23)cc1)N1CCNCC1: 0.0
28) COC(=O)[C@]12CC[C@@H](C)[C@H](C)[C@@H]1C1=CC[C@@H]3[C@@]4(C)C(C=O)=C[C@@](C)(COS(C)(=O)=O)C4=CC[C@@]3(C)[C@]1(C)CC2: 1.0
